Test system: XF498
Measurement description: NCI tumour cell line growth inhibition, 48 h
Calls of active or inactive are those of the source. No stated cut-off is given here; in the data, active = GI50 up to about 1.1 µM and inactive = higher.
Entry note: the call must match one of active, inactive

[[record]]
compound = "O=C1Nc2ccccc2C12CCCC2"
assigned_label = "inactive"

[[record]]
compound = "CCCCN(CCCC)CC(C(C)=O)C(c1ccccc1)c1c(O)c2ccccc2oc1=O (stereo unspecified)"
assigned_label = "inactive"

[[record]]
compound = "O=C(Cc1ccccc1)NN1C(=O)C(Cl)C1c1ccccc1Cl (stereo unspecified)"
assigned_label = "inactive"


Assay outcome for O=S(O)CCCSSc1ccccc1 : what was it?
inactive

Assay outcome for CO[C@@H]1[C@H](OC(=O)NC(=O)CCl)CC[C@]2(CO2)[C@H]1[C@@]1(C)O[C@@H]1CC=C(C)C [O-CHLOROACETYLCARBAMOYLFUMAGILLOL] : what was it?
inactive

Assay outcome for COC(=O)C12OCC34C(CC5C(C)=CC(=O)C(O)C5(C)C3C(O)C1O)OC(=O)C(OC(=O)CC(C)C)C24 (stereo unspecified) : what was it?
active

Assay outcome for C=C1CC2OC2(C(=O)O[C@H]2CCC3[C@@H]4CCC5=CC(=O)CC[C@]5(C)C4CC[C@@]32C)C1=O (stereo partly specified) : what was it?
inactive

Assay outcome for O=C(NC(=O)c1cn(CCN(CCO)C(=O)NCCCCCCNC(=O)N(CCO)CCn2cc(C(=O)NC(=O)OCc3ccccc3)c(=O)[nH]c2=O)c(=O)[nH]c1=O)OCc1ccccc1 : what was it?
inactive

Assay outcome for COc1cc(OC)cc(-c2cc(O)c3cc4c(cc3n2)OCO4)c1 : what was it?
active

Assay outcome for CN(C)c1ccc(-c2nc(N)nc3c2CCCC3)cc1 : what was it?
inactive

Assay outcome for CC(=O)OCC1OC(n2cc(F)c(=O)[nH]c2=O)C(NC(=O)N(CCCl)N=O)C(OC(C)=O)C1OC(C)=O (stereo unspecified) : what was it?
inactive
